Tested on: U-87 MG
Assay: Photodynamic antitumor activity against human U87 cells assessed as inhibition of cell growth incubated for 60 mins followed by compound washout and light irradiation measured after 72 hrs by MTT assay
Format: functional, cell-based, U-87MG ATCC
Details: light or radiation study
EXPERIMENTAL_ENDPOINT: IC50 (nM)
Hi! Could you send only the number? It should be in nM, unit omitted.

Which IC50 value belongs to "Cc1cc(C)n2c1C=C1C=CC(CCC(=O)NCCCCCCNC(=O)c3ccc(S(N)(=O)=O)cc3)=[N+]1[B-]2(F)F" ?
18900

Which IC50 value belongs to "Cc1c(Br)c(C)n2c1C=C1C=C(Br)C(CCC(=O)NCCCCCCNC(=O)c3ccc(S(N)(=O)=O)cc3)=[N+]1[B-]2(F)F" ?
300

Which IC50 value belongs to "Cc1c(I)c(C)n2c1C=C1C=C(I)C(CCC(=O)NCCCCCCNC(=O)c3ccc(S(N)(=O)=O)cc3)=[N+]1[B-]2(F)F" ?
50

The measurements presented in this section are drawn from ChEMBL document CHEMBL5576064.
